test: Hydrophobicity of compound assessed as %MeCN at peak elution by RP-HPLC analysis; assay type: physicochemical

# smiles_input, MeCN percentage at peak elution [%]
data = [
    ("CC[C@H](C)[C@@H](NC(=O)[C@@H](NC(=O)[C@H](CCC(=O)O)NC(=O)[C@H](Cc1ccccc1)NC(=O)[C@@H](CCN)NC(=O)[C@H](CCN)NC(=O)[C@H](CO)NC(=O)[C@@H](Cc1c[nH]c2ccccc12)NC(=O)[C@@H](CO)NC(=O)CNC(=O)[C@@H](CCN)NC(=O)[C@H](NC(=O)[C@@H](N)C(C)C)C(C)C)C(C)C)C(=O)N[C@@H](C)C(=O)O", 41.5),
    ("CC[C@H](C)[C@@H](NC(=O)[C@@H](NC(=O)[C@H](CCC(=O)O)NC(=O)[C@H](Cc1ccccc1)NC(=O)[C@@H](CCN)NC(=O)[C@H](CCN)NC(=O)[C@H](CO)NC(=O)[C@@H](Cc1c[nH]c2ccccc12)NC(=O)[C@@H](CO)NC(=O)CNC(=O)[C@@H](CCN)NC(=O)[C@H](N)C(C)C)C(C)(C)C)C(=O)N[C@@H](C)C(N)=O", 41),
    ("CC[C@@H](C)[C@@H](NC(=O)[C@@H](NC(=O)[C@H](CCC(=O)O)NC(=O)[C@H](Cc1ccccc1)NC(=O)[C@@H](CCN)NC(=O)[C@H](CCN)NC(=O)[C@H](CO)NC(=O)[C@@H](Cc1c[nH]c2ccccc12)NC(=O)[C@@H](CO)NC(=O)CNC(=O)[C@@H](CCN)NC(=O)[C@H](N)C(C)C)C(C)C)C(=O)N[C@@H](C)C(=O)O", 39.5),
]
